Hello, the source for this data is PubChem BioAssay, in case you need it.

Test: small molecules captured by biotinylated probe aFGF10 – biochemical, small-molecule microarray, fluorescence 635/667, stem cell growth factor project, primary screen (AID 1071);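 also: score merges 667 nm spot intensity and signal to noise from triplicate slides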
Conditions: higher = more signal
Please use Criterion met whenever composite z-score is not below 0.2, and Criterion not met whenever it is.

## Task Check if composite z-score >= 0.2 (inclusive). Item: COc1cc(OC)c(C(O)C2C=CC3C(=O)N(Cc4ccccc4)C(=O)C3N2n2cnnc2)cc1Br (stereo not drawn)
## Result Criterion met

## Task Check if composite z-score >= 0.2 (inclusive). Item: [N-]=[N+]=NCc1ccccc1[C@@H]1OC(c2ccc(OCCCO)cc2)=N[C@]1(CCS(=O)(=O)c1ccccc1)C(=O)O
## Result Criterion met

## Task Check if composite z-score >= 0.2 (inclusive). Item: CC(C)[Si]1(C(C)C)OCc2cc(C3CC3)nc(-c3ccc(Oc4ccccc4)cc3)c21
## Result Criterion not met

## Task Check if composite z-score >= 0.2 (inclusive). Item: CO[C@H]1O[C@H](CO)[C@@H](OC(=O)Nc2ccc(Br)cc2)[C@@H]2OC(=O)[C@@H](Cc3ccccc3)C/C=C/C[C@H](Cc3ccccc3)C(=O)O[C@@H]12
## Result Criterion met

## Task Check if composite z-score >= 0.2 (inclusive). Item: COc1ccc([Si](C)(C)[C@H]2[C@H](CC(=O)N(CCO)Cc3ccccc3)O[C@@]3(C(=O)N(C)c4c(Br)cc(C)cc43)[C@@H]2C)cc1
## Result Criterion met

## Task Check if composite z-score >= 0.2 (inclusive). Item: CCOc1cc(C(O)C2C=CC3C(=O)NC(=O)C3N2Nc2ccc(Cl)cc2Cl)ccc1O (stereo not drawn)
## Result Criterion not met

## Task Check if composite z-score >= 0.2 (inclusive). Item: O=C(c1ccccc1)N1C(=O)[C@]2(Cc3ccccc31)N=C(c1ccc(OCCCO)cc1)O[C@@H]2c1ccccc1
## Result Criterion met

## Task Check if composite z-score >= 0.2 (inclusive). Item: C=CCC(OC(C)=O)[C@@H]1[C@@H](N(Cc2ccc(-c3cccc(C(F)(F)F)c3)o2)C(=O)Cc2ccc(OC)cc2)c2cc(OCCCO)ccc2N1C(=O)c1ccc(-c2ccccc2)cc1 (stereo partly drawn)
## Result Criterion not met

## Task Check if composite z-score >= 0.2 (inclusive). Item: CCCNC(=O)[C@@H]1c2ccccc2C(=O)N(Cc2ccc(OC(F)(F)F)cc2)[C@H]1c1ccc(CO)cc1
## Result Criterion not met

## Task Check if composite z-score >= 0.2 (inclusive). Item: C=CCNC(=O)[C@@H]1[C@H]2C(=O)O[C@H](c3ccccc3)[C@H](c3ccccc3)N2[C@H](c2ccccc2OCCO)[C@@]12C(=O)N(C(=O)OCCOC)c1ccc(C#CC3(O)CCCCCC3)cc12
## Result Criterion met

## Task Check if composite z-score >= 0.2 (inclusive). Item: C=C(C(=O)CC[C@H](OC(=O)c1ccccc1-c1ccccc1C(=O)O)c1cccc(OCCO)c1)C(C)C
## Result Criterion met

## Task Check if composite z-score >= 0.2 (inclusive). Item: CCOC(=O)C[C@H]1[C@H](OC(=O)c2cc3ccccc3oc2=O)[C@@H](NC(=O)c2ccccc2)c2cc(OCCCO)ccc2N1C(=O)c1ccccc1
## Result Criterion met

## Task Check if composite z-score >= 0.2 (inclusive). Item: CC1CC/C=C\[C@H]2OC34C=CCN(C(C)C)C(=O)[C@H]3N(CCO)C(=O)[C@@H]4C2C(=O)O1 (stereo partly drawn)
## Result Criterion not met

## Task Check if composite z-score >= 0.2 (inclusive). Item: Cc1ccc(S[C@]2(C(=O)NCc3ccccc3)CC(=O)N(C3CCCCC3)[C@@H]2c2ccc(CO)cc2I)cc1
## Result Criterion met

## Task Check if composite z-score >= 0.2 (inclusive). Item: O[C@@H](Cc1ccccc1)[C@@H](/C=C/C1CC1)N(CC#Cc1ccccc1)Cc1ccccc1Br
## Result Criterion not met

## Task Check if composite z-score >= 0.2 (inclusive). Item: CC(C)[Si]1(C(C)C)OCc2cc(-c3ccc(-c4ccc(Cl)c(Cl)c4)o3)nc(-c3ccccc3)c21
## Result Criterion not met
